Biological target: P-glycoprotein (P-gp) (Homo sapiens)
Construct: endogenous in cells; host or cells: Caco-2 TC7 cell monolayers
Sequence (P08183 whole entry): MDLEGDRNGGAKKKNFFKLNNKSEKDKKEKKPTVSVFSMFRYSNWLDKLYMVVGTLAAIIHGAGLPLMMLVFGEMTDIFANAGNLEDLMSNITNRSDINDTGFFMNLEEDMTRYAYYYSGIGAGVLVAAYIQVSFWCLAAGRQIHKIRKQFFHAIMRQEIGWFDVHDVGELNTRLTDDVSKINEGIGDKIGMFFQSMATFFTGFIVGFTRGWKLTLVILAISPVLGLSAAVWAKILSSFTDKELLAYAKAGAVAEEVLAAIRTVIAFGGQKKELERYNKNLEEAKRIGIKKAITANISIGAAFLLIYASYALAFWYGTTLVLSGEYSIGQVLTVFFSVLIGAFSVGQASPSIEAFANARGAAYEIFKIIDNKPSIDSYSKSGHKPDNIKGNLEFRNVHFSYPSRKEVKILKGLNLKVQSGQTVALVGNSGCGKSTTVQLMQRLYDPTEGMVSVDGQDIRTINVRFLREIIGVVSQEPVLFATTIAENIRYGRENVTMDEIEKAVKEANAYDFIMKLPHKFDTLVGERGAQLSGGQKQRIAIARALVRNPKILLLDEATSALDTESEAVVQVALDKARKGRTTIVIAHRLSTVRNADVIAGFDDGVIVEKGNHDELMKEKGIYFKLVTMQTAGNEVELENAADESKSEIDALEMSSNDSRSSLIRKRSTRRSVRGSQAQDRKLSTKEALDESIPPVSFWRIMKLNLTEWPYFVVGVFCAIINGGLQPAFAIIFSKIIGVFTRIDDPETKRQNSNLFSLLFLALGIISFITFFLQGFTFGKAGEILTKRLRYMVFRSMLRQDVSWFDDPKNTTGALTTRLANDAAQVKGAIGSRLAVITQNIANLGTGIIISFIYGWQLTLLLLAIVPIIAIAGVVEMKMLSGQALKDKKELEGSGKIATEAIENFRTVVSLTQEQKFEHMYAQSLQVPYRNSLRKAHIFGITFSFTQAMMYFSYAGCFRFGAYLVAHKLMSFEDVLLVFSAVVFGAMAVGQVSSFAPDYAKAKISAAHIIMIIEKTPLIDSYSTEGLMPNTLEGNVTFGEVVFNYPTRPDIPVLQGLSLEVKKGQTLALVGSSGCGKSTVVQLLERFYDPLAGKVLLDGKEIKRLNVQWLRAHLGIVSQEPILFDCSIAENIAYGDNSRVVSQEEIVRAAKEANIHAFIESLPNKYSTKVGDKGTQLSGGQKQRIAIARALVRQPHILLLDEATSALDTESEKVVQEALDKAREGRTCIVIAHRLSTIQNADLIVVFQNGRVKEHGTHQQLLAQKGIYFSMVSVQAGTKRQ
Assay: Caco-2 transport in the presence of verapamil (P-gp inhibitor)
Format: in vitro ADME
Conditions: human, Caco-2, pH 7.4, with verapamil 50 µM; 20 μM epimedin, 50 μM verapamil; read-out: efflux ratio in the presence of verapamil
Protocol: Meanwhile, verapamil was dissolved in water to 2 mM as well as MK571 and dipyridamole were dissolved in dimethyl sulfoxide (DMSO)-ethanol (v/v = 1/1) to prepare the stock solution (10 mM) when they were used. […] To each transport sample (400 µL), acetonitrile (100 µL) containing 100 µM of testosterone was added as an internal standard and preservation. […] The supernatant obtained was determined by ultra-performance liquid chromatography (UPLC) within 24 h. […]
reported-property: efflux ratio at 5 h, 20 µM

[
  {
    "compound": "COc1ccc(-c2oc3c(CC=C(C)C)c(OC4O[C@H](CO)[C@@H](O)[C@H](O)[C@H]4O)cc(O)c3c(=O)c2OC2O[C@@H](C)[C@H](O)[C@@H](O)[C@H]2O[C@@H]2O[C@H](CO)[C@@H](O)[C@H](O)[C@H]2O)cc1 (stereo partly shown) [epimedin A]",
    "measured-value": 1.03
  }
]
